Source: ChEMBL document CHEMBL5291721

- subject of test: Prostaglandin G/H synthase 1 (Homo sapiens, UniProt P23219)
- Sequence (P23219 whole entry): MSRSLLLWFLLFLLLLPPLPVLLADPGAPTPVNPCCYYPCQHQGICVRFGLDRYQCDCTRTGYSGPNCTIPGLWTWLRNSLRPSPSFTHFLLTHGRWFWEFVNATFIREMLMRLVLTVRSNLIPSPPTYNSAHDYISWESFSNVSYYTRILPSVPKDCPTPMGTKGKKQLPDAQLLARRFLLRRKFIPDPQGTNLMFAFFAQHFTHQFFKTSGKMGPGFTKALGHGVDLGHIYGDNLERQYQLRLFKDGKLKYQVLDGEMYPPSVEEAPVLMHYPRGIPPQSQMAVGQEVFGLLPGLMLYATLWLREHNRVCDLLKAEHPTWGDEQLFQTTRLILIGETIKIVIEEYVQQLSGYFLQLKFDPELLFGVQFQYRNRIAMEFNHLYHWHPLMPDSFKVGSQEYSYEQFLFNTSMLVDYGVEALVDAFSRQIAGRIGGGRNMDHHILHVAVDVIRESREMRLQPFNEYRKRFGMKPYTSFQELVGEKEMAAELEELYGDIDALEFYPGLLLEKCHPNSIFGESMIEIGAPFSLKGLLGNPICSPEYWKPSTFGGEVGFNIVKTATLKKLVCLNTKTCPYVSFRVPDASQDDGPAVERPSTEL
- Type: functional
property name: AC50

Tested on Prostaglandin G/H synthase 1 (Homo sapiens, UniProt P23219), the item Cn1c(=O)c2[nH]cnc2n(C)c1=O [THEOPHYLLINE] showed AC50 equal to > 30 µM

Tested on Prostaglandin G/H synthase 1 (Homo sapiens, UniProt P23219), the item COCCCOc1ccnc(C[S+]([O-])c2nc3ccccc3[nH]2)c1C (stereo not given) [RABEPRAZOLE] showed AC50 equal to 0.71 µM

Tested on Prostaglandin G/H synthase 1 (Homo sapiens, UniProt P23219), the item CCn1cc(C(=O)O)c(=O)c2cc(F)c(N3CCNCC3)nc21 [ENOXACIN] showed AC50 equal to > 30 µM

Tested on Prostaglandin G/H synthase 1 (Homo sapiens, UniProt P23219), the item c1ccc2[nH]c(-c3cscn3)nc2c1 [THIABENDAZOLE] showed AC50 equal to > 30 µM

Tested on Prostaglandin G/H synthase 1 (Homo sapiens, UniProt P23219), the item N=C(N)NCc1cccc([123I])c1 [IOBENGUANE I 123] showed AC50 equal to > 30 µM

Tested on Prostaglandin G/H synthase 1 (Homo sapiens, UniProt P23219), the item Nc1ccncc1 [DALFAMPRIDINE] showed AC50 equal to > 30 µM

Tested on Prostaglandin G/H synthase 1 (Homo sapiens, UniProt P23219), the item O=C1c2c(O)cccc2Cc2cccc(O)c21 [ANTHRALIN] showed AC50 equal to 0.875 µM

Tested on Prostaglandin G/H synthase 1 (Homo sapiens, UniProt P23219), the item COc1cc([C@@H]2c3cc4c(cc3[C@@H](O[C@@H]3O[C@@H]5CO[C@@H](c6cccs6)O[C@H]5[C@H](O)[C@H]3O)[C@H]3COC(=O)[C@H]23)OCO4)cc(OC)c1O [TENIPOSIDE] showed AC50 equal to > 30 µM

Tested on Prostaglandin G/H synthase 1 (Homo sapiens, UniProt P23219), the item CC(C)COc1ccc(CNC(=O)N(Cc2ccc(F)cc2)C2CCN(C)CC2)cc1 [PIMAVANSERIN] showed AC50 equal to > 30 µM

Tested on Prostaglandin G/H synthase 1 (Homo sapiens, UniProt P23219), the item O=S(=O)(O)CCS [2-MERCAPTOETHANESULFONIC ACID] showed AC50 equal to 0.486 µM

Tested on Prostaglandin G/H synthase 1 (Homo sapiens, UniProt P23219), the item C#Cc1cccc(Nc2ncnc3cc(OCCOC)c(OCCOC)cc23)c1 [ERLOTINIB] showed AC50 equal to 0.0388 µM

Tested on Prostaglandin G/H synthase 1 (Homo sapiens, UniProt P23219), the item C1CNCCN1 [PIPERAZINE] showed AC50 equal to > 30 µM

Tested on Prostaglandin G/H synthase 1 (Homo sapiens, UniProt P23219), the item CN(C)CCCN1C(=O)c2cc([N+](=O)[O-])ccc2Oc2ccccc21 showed AC50 equal to 29.6 µM

Tested on Prostaglandin G/H synthase 1 (Homo sapiens, UniProt P23219), the item Cc1onc(-c2c(Cl)cccc2Cl)c1C(=O)N[C@@H]1C(=O)N2[C@@H]1SC(C)(C)[C@@H]2C(=O)O [DICLOXACILLIN] showed AC50 equal to > 30 µM

Tested on Prostaglandin G/H synthase 1 (Homo sapiens, UniProt P23219), the item CCC(=O)O[C@@H]1CC(=O)O[C@H](C)C/C=C/C=C/[C@H](OC(C)=O)[C@H](C)C[C@H](CC=O)[C@H](O[C@@H]2O[C@H](C)[C@@H](O[C@H]3C[C@@](C)(OC(C)=O)[C@@H](OC(=O)CC)[C@H](C)O3)[C@H](N(C)C)[C@H]2O)[C@H]1OC [MIOCAMYCIN] showed AC50 equal to > 30 µM

Tested on Prostaglandin G/H synthase 1 (Homo sapiens, UniProt P23219), the item O=P(O)(O)C(Cl)(Cl)P(=O)(O)O [CLODRONIC ACID] showed AC50 equal to > 30 µM

Tested on Prostaglandin G/H synthase 1 (Homo sapiens, UniProt P23219), the item CC(N)CCCC(C)(C)O (stereo not given) [HEPTAMINOL] showed AC50 equal to > 30 µM

Tested on Prostaglandin G/H synthase 1 (Homo sapiens, UniProt P23219), the item NC(=O)NCCC[C@H](N)C(=O)O [L-CITRULLINE] showed AC50 equal to > 30 µM

Tested on Prostaglandin G/H synthase 1 (Homo sapiens, UniProt P23219), the item O=C(CCCN1CC=C(n2c(=O)[nH]c3ccccc32)CC1)c1ccc(F)cc1 [DROPERIDOL] showed AC50 equal to > 30 µM

Tested on Prostaglandin G/H synthase 1 (Homo sapiens, UniProt P23219), the item CC(=O)OC(C)OC(=O)C(C)c1ccc(-c2ccccc2)c(F)c1 (stereo not given) showed AC50 equal to 0.0309 µM

Tested on Prostaglandin G/H synthase 1 (Homo sapiens, UniProt P23219), the item Cc1nnc(SCC2=C(C(=O)O)N3C(=O)[C@@H](NC(=O)Cn4cc(Cl)c(=O)c(Cl)c4)[C@H]3SC2)s1 [CEFAZEDONE] showed AC50 equal to 8.23 µM

Tested on Prostaglandin G/H synthase 1 (Homo sapiens, UniProt P23219), the item c1cc(CN2CCCNCCNCCCNCC2)ccc1CN1CCCNCCNCCCNCC1 [PLERIXAFOR] showed AC50 equal to > 30 µM

Tested on Prostaglandin G/H synthase 1 (Homo sapiens, UniProt P23219), the item O=C(O)COc1nn(Cc2ccccc2)c2ccccc12 [BENDAZAC] showed AC50 equal to > 30 µM

Tested on Prostaglandin G/H synthase 1 (Homo sapiens, UniProt P23219), the item c1ccc2c(CC3=NCCN3)cccc2c1 [NAPHAZOLINE] showed AC50 equal to > 30 µM

Tested on Prostaglandin G/H synthase 1 (Homo sapiens, UniProt P23219), the item CN(C)CCC(c1ccccc1)c1ccccn1 (stereo not given) [PHENIRAMINE] showed AC50 equal to > 30 µM

====

- subject of test: 5-hydroxytryptamine receptor 1A (Homo sapiens)
- Sequence (P08908 whole entry): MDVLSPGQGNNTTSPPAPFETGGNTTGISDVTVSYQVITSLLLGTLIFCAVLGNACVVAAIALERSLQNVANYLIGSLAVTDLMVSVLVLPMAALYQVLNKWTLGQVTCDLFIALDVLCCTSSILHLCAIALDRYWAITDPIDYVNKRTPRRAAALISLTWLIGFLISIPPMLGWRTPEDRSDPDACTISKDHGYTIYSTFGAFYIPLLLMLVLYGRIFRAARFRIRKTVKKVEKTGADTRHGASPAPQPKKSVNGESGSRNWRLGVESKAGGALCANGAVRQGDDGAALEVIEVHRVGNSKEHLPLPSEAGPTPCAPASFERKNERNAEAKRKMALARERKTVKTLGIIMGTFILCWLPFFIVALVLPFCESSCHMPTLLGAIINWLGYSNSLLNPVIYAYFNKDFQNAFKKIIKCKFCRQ
- Format: functional, cell-based
property name: AC50

Tested on 5-hydroxytryptamine receptor 1A (Homo sapiens), the item CCCN(CCc1cccs1)[C@H]1CCc2c(O)cccc2C1 [ROTIGOTINE] showed AC50 equal to > 10 µM

Tested on 5-hydroxytryptamine receptor 1A (Homo sapiens), the item COC1=C(OC)C(=O)C(CCCCCCCCCCO)=C(C)C1=O [IDEBENONE] showed AC50 equal to > 10 µM

Tested on 5-hydroxytryptamine receptor 1A (Homo sapiens), the item CCCC(C)(COC(N)=O)COC(=O)NC(C)C (stereo not drawn) [CARISOPRODOL] showed AC50 equal to > 10 µM

====

- subject of test: Amine oxidase [flavin-containing] A (Homo sapiens)
- Sequence (P21397 whole entry): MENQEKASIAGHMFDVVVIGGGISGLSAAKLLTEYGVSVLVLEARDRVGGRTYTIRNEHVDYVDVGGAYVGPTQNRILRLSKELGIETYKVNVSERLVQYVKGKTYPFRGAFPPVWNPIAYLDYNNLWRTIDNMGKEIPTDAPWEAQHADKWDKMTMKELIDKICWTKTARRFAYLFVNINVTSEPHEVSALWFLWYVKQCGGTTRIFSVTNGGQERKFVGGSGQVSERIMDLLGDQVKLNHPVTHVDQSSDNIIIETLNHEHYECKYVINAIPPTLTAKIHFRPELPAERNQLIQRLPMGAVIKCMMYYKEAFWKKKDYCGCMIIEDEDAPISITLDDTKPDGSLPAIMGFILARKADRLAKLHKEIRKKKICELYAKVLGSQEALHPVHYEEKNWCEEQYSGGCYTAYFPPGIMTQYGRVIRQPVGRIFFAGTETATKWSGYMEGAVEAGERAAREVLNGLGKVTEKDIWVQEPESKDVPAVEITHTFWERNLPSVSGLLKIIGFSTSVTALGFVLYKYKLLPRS
- Assay type: functional
For each entry below, report its AC50 value.

Reported AC50 for C=C(C)[C@@H]1CCC(C)=C[C@H]1c1c(O)cc(CCCCC)cc1O was > 30 µM

Reported AC50 for CCN(CC)CC(=O)Oc1ccc(NC(C)=O)cc1 was > 30 µM

Reported AC50 for CCCN(CCc1cccs1)[C@H]1CCc2c(O)cccc2C1 was > 30 µM

====

- subject of test: Glutamate receptor ionotropic, NMDA 1 (Rattus norvegicus)
property name: AC50

Reported AC50 for CCC(=O)OCC(=O)[C@@]1(OC(=O)CC)[C@@H](C)C[C@H]2[C@@H]3CCC4=CC(=O)C=C[C@]4(C)[C@@]3(F)[C@@H](O)C[C@@]21C [BETAMETHASONE DIPROPIONATE] was > 30 µM

Reported AC50 for N=C(N)NCCCCCCC(=O)NC(O)C(=O)NCCCCNCCCN (centres undefined) was > 30 µM

Reported AC50 for CC1(C)C(/C=C/C=C/C=C/C=C2\N(CCCCS(=O)(=O)O)c3ccc4ccccc4c3C2(C)C)=[N+](CCCCS(=O)(=O)[O-])c2ccc3ccccc3c21 [INDOCYANINE GREEN ACID FORM] was > 30 µM

Reported AC50 for CC(=O)c1ccc2c(c1)N(CCCN1CCC(CCO)CC1)c1ccccc1S2 was > 30 µM

Reported AC50 for COc1c(O[C@@H]2O[C@H](CO)[C@@H](O)[C@H](O)[C@H]2O)cc2c(c1OC)-c1ccc(SC)c(=O)cc1[C@@H](NC(C)=O)CC2 [THIOCOLCHICOSIDE] was > 30 µM

Reported AC50 for COc1cc(OC)c(C(=O)CCCN2CCCC2)c(OC)c1 was > 30 µM

Reported AC50 for N=C(N)c1ccc2cc(OC(=O)c3ccc(N=C(N)N)cc3)ccc2c1 was 0.29 µM

Reported AC50 for CC(=O)OCC(CCn1cnc2cnc(N)nc21)COC(C)=O was > 10 µM

Reported AC50 for COc1ccc(/C=C/C(=O)Nc2ccccc2C(=O)O)cc1OC was > 30 µM
